tested on: HCT-15 (human colon); test: In vitro antitumor effect against human tumor cell lines, SRB assay; format: cell-based; conditions: 48 hours, HCT 15 cells
testReadout: ED50 HCT 15 (µg/mL)
Give just the numeric value; µg/mL need not be written.

{"columns": ["compound", "observedValue"],
 "data": [
  ["CCCC=Nc1cc(CO)cc(Nc2c3ccccc3nc3ccccc23)c1", 0.35]
]}

Query string: Using known records, supply ED50 HCT 15 for "Nc1cc(COC(=O)Nc2ccccc2)cc(Nc2c3ccccc3nc3ccccc23)c1"
Result string: 0.57

Query string: Please look at this compound and report its ED50 HCT 15: N.N.[Cl][Pt][Cl] [Cisplatin, reference compound]
Result string: 3.03

Query string: // Input: "C[C@H](N)C(=O)Nc1cc(CO)cc(Nc2c3ccccc3nc3ccccc23)c1" . Output its ED50 HCT 15 only.
Result string: 0.86

Query string: Item "COc1cccc(NC(=O)OCc2cc(N)cc(Nc3c4ccccc4nc4ccccc34)c2)c1" : provide ED50 HCT 15
Result string: 0.97

Query string: Read the entry "COc1cc(NC(=O)OCc2cc(N)cc(Nc3c4ccccc4nc4ccccc34)c2)cc(OC)c1OC" and write its reported ED50 HCT 15.
Result string: 0.24

Query string: Indicate the recorded ED50 HCT 15 value for this compound: "Cc1cc(C)cc(NC(=O)OCc2cc(N)cc(Nc3c4ccccc4nc4ccccc34)c2)c1"
Result string: 0.33

----------
system: SKMEL-2 (human melanoma); assay: In vitro antitumor effect against human tumor cell lines, SRB assay; type: cell-based; conditions: 48 hours, SK-MEL-2 cells
Output Satisfied for records whose ED50 SK-MEL-2 is lower than 0.4 µg/mL, Not satisfied for records at or above 0.4 µg/mL.

A selection of reference data follows.
{"columns": ["compound", "assayedSystem", "labelValue"],
 "data": [
  ["Nc1cc(COC(=O)Nc2ccccc2)cc(Nc2c3ccccc3nc3ccccc23)c1", "SKMEL-2 (human melanoma)", "Not satisfied"],
  ["N.N.[Cl][Pt][Cl] [Cisplatin, reference compound]", "SKMEL-2 (human melanoma)", "Not satisfied"],
  ["COc1cc(NC(=O)OCc2cc(N)cc(Nc3c4ccccc4nc4ccccc34)c2)cc(OC)c1OC", "SKMEL-2 (human melanoma)", "Satisfied"],
  ["CCCC=Nc1cc(CO)cc(Nc2c3ccccc3nc3ccccc23)c1", "SKMEL-2 (human melanoma)", "Not satisfied"]
]}

Below: the item to evaluate.
Query string: ED50 SK-MEL-2 under 0.4 µg/mL? Item: "C[C@H](N)C(=O)Nc1cc(CO)cc(Nc2c3ccccc3nc3ccccc23)c1"
Result string: Satisfied

----------
Readings of IC50 (μg/ml), inhibition of Topoisomerase II activity for the listed compounds
molecular target: Topoisomerase II; assay: Inhibition effects against the Topoisomerase II activities (DNA relaxation assay, DNA cleavage assay); format: biochemical; conditions: supercoiled pBR322 DNA substrate, 30 minutes at 37° C.
Quick reminder: number only, in µg/mL, skip the unit.

{"columns": ["chemicalSmiles", "observedValue"],
 "data": [
  ["COc1cc(NC(=O)OCc2cc(N)cc(Nc3c4ccccc4nc4ccccc34)c2)cc(OC)c1", 3],
  ["CCC=Nc1cc(CO)cc(Nc2c3ccccc3nc3ccccc23)c1", 3],
  ["COc1cc(NC(=O)OCc2cccc(Nc3c4ccccc4nc4ccccc34)c2)cc(OC)c1OC", 5],
  ["COc1cc(NC(=O)OCc2cc(N)cc(Nc3c4ccccc4nc4ccccc34)c2)cc(OC)c1OC", 5],
  ["CCCC=Nc1cc(CO)cc(Nc2c3ccccc3nc3ccccc23)c1", 5],
  ["COc1cccc(NC(=O)OCc2cccc(Nc3c4ccccc4nc4ccccc34)c2)c1", 3]
]}

Query string: Look up and state reported IC50 (μg/ml), inhibition of Topoisomerase II activity for "Nc1cc(COC(=O)Nc2cccc(Cl)c2)cc(Nc2c3ccccc3nc3ccccc23)c1"
Result string: 1

Query string: Answer with reported IC50 (μg/ml), inhibition of Topoisomerase II activity of "Cc1cc(C)cc(NC(=O)OCc2cc(N)cc(Nc3c4ccccc4nc4ccccc34)c2)c1"
Result string: 3
